# targetOfAssay: casein (prepared according to Hammarsten; Merck, Darmstadt, #2242)
readoutKind: Specific Activity (HPE · mg^-1)
Report only the number, with the unit HPE · mg^-1 understood.

Here's what some known entries look like.
binder: BLAP mutant F44 (S3T + V4I + R99A + A188P + V193M + V199I) (enzyme) AQTIPWGISRVQAPAAHNRGLTGSGVKVAVLDTGISTHPDLNIRGGASFVPGEPSTQDGNGHGTHVAGTIAALNNSIGVLGVAPSAELYAVKVLGADGAGAISSIAQGLEWAGNNGMHVANLSLGSPSPSATLEQAVNSATSRGVLVVAASGNSGASSISYPARYANAMAVGATDQNNNRASFSQYGPGLDIMAPGVNIQSTYPGSTYASLNGTSMATPHVAGAAALVKQKNPSWSNVQIRNHLKNTATSLGSTNLYGSGLVNAEAATR
readoutKind: Specific Activity (HPE · mg^-1)
recordedValue: 3750

binder: BLAP mutant F46 (S3T + V4I + S154E + A188P + V193M + V199I) (enzyme) AQTIPWGISRVQAPAAHNRGLTGSGVKVAVLDTGISTHPDLNIRGGASFVPGEPSTQDGNGHGTHVAGTIAALNNSIGVLGVAPSAELYAVKVLGADGRGAISSIAQGLEWAGNNGMHVANLSLGSPSPSATLEQAVNSATSRGVLVVAASGNEGASSISYPARYANAMAVGATDQNNNRASFSQYGPGLDIMAPGVNIQSTYPGSTYASLNGTSMATPHVAGAAALVKQKNPSWSNVQIRNHLKNTATSLGSTNLYGSGLVNAEAATR
readoutKind: Specific Activity (HPE · mg^-1)
recordedValue: 3180

The binder identified as BLAP mutant F45 (S3T + V4I + R99S + A188P + V193M + V199I) (enzyme) AQTIPWGISRVQAPAAHNRGLTGSGVKVAVLDTGISTHPDLNIRGGASFVPGEPSTQDGNGHGTHVAGTIAALNNSIGVLGVAPSAELYAVKVLGADGSGAISSIAQGLEWAGNNGMHVANLSLGSPSPSATLEQAVNSATSRGVLVVAASGNSGASSISYPARYANAMAVGATDQNNNRASFSQYGPGLDIMAPGVNIQSTYPGSTYASLNGTSMATPHVAGAAALVKQKNPSWSNVQIRNHLKNTATSLGSTNLYGSGLVNAEAATR registered its Specific Activity (HPE · mg^-1) at 3710

// Specific Activity (HPE · mg^-1) lookup, binder = BLAP mutant F54 (S3T + V4I + R99G + A188P + V193M + V199I + L211D) (enzyme) AQTIPWGISRVQAPAAHNRGLTGSGVKVAVLDTGISTHPDLNIRGGASFVPGEPSTQDGNGHGTHVAGTIAALNNSIGVLGVAPSAELYAVKVLGADGGGAISSIAQGLEWAGNNGMHVANLSLGSPSPSATLEQAVNSATSRGVLVVAASGNSGASSISYPARYANAMAVGATDQNNNRASFSQYGPGLDIMAPGVNIQSTYPGSTYASDNGTSMATPHVAGAAALVKQKNPSWSNVQIRNHLKNTATSLGSTNLYGSGLVNAEAATR , result: 2510

response.value for BLAP mutant F11 (S3T + R99S + A188P + V193M + V199I) (enzyme) AQTVPWGISRVQAPAAHNRGLTGSGVKVAVLDTGISTHPDLNIRGGASFVPGEPSTQDGNGHGTHVAGTIAALNNSIGVLGVAPSAELYAVKVLGADGSGAISSIAQGLEWAGNNGMHVANLSLGSPSPSATLEQAVNSATSRGVLVVAASGNSGASSISYPARYANAMAVGATDQNNNRASFSQYGPGLDIMAPGVNIQSTYPGSTYASLNGTSMATPHVAGAAALVKQKNPSWSNVQIRNHLKNTATSLGSTNLYGSGLVNAEAATR (field: Specific Activity (HPE · mg^-1)) = 3760
